Data origin: patent US10023592B2

- system.under.test: BRD4(BD1) (Homo sapiens (Human), UniProt O60885)
- protocol.description: In vitro enzyme inhibition assay (BRD4 AlphaScreen)
- Type: binding
parameter.measured: IC50

Cn1cc(-c2cc(S(C)(=O)=O)ccc2NCC2CC2)c2ccccc2c1=O : < 500 nM

Below: the item to evaluate.
Consider the compound shown here: "Cn1cc(-c2cc(NS(C)(=O)=O)ccc2Oc2ccc(F)cc2F)ccc1=O" What is its recorded IC50? < 500 nM

----------
The molecules listed here are annotated with their IC50.
- system.under.test: BRD4(BD1) (Homo sapiens (Human))
- protocol.description: In vitro enzyme inhibition assay (BRD4 AlphaScreen)
- Type: binding
- measurement.setup: in vitro enzyme inhibition assay

# count of solved cases: 3
C#Cc1cc(-c2cc(S(C)(=O)=O)ccc2OCC2CC2)cn(C)c1=O : 500 to 5000 nM
COCC1COc2cc(S(C)(=O)=O)cc(-c3cc(C)c(=O)n(C)c3)c2O1 (stereo not shown) : < 500 nM
CCS(=O)(=O)Nc1cc(-c2cc(C)c(=O)n(C)c2)nc(Oc2ccc(F)cc2F)n1 : 500 to 5000 nM

Below: the item to evaluate.
Consider the molecule shown here: "CCn1cc(-c2cc(CS(C)(=O)=O)ccc2Oc2ccc(F)cc2F)cc(C)c1=O" What is its recorded IC50? < 500 nM

----------
The compounds listed here are annotated with their IC50.
- Tested on: Raji, human Burkitts lymphoma cells
- protocol.description: Cell-MTS proliferation assay, Raji
- Type: cell-based
- measurement.setup: Homo sapiens, Raji; Cell-MTS, 168 hr; class symbols A/B/C
- From the text: The Cell-MTS assay is a 7-day plate-based colorimetric assay which quantifies the amount of newly generated NADH in the presence or absence of test compound. The NADH level is used for the quantification of cancer cell proliferation. Established cancer cell lines with a variety of driving mutations were obtained from American Type Culture Collection (ATCC) and routinely passaged according to ATCC protocols. […]

Cn1cc(-c2cc(F)cc(NS(C)(=O)=O)c2)c2ccccc2c1=O : 500 to 5000 nM
CCS(=O)(=O)Nc1cccc(-c2cn(C)c(=O)c3ccc(-c4ccccn4)cc23)c1 : 500 to 5000 nM
Cn1cc(-c2cc(S(C)(=O)=O)ccc2OCC2CC2)c2cc(F)ccc2c1=O : < 500 nM
CCS(=O)(=O)Nc1ccc(Oc2ccc(F)cc2F)c(-c2cc(N)c(=O)n(C)c2)c1 : < 500 nM
CCS(=O)(=O)Nc1ccc(Oc2ccc(F)cc2F)c(-c2cn(C)c(=O)c3cnccc23)c1 : < 500 nM
COc1ccc(-c2cn(C)c(=O)c3ccccc23)cc1NS(C)(=O)=O : 500 to 5000 nM
COc1ccc(-c2cn(C)c(=O)c3cc(F)ccc23)cc1S(=O)(=O)NCc1ccccc1 : < 500 nM

Below: the item to evaluate.
Consider the compound shown here: "Cn1cc(-c2ccc3c(=O)n(C)cc(-c4cc(NS(C)(=O)=O)c(F)cc4F)c3c2)cn1" What is its recorded IC50? < 500 nM

----------
The compounds listed here are annotated with their pIC50.
- system.under.test: BRD4(BD1) (Homo sapiens (Human))
- protocol.description: In vitro enzyme inhibition assay (BRD4 AlphaScreen)
- Format: binding
- measurement.setup: class symbols A/B/C
- Description: His-tagged BRD4 was cloned, expressed and purified to homogeneity. […] BRD4 binding and inhibition was assessed by monitoring the interaction of biotinylated H4-tetraacetyl peptide (AnaSpec, H4K5/8/12/16(Ac), biotin-labeled) with the target using the AlphaScreen technology (Life Technologies). […] The ability of the compounds disclosed herein to inhibit BRD4 activity was quantified and the respective IC50 value was determined.
pIC50: −log10 of the molar value. Where a name gives a salt, the structure may show the parent alone.

# count of solved cases: 2
Cn1cc(-c2cc(S(C)(=O)=O)ccc2OCC2CC2)n2cncc2c1=O : > 6.30
COc1ccc(-c2cn(C)c(=O)c3ccccc23)cc1S(=O)(=O)NCc1ccccc1 : 5.30 to 6.30

Consider the compound shown here: "CCS(=O)(=O)c1ccc(Oc2ccc(F)cc2F)c(-c2cc(F)c(=O)n(C)c2)c1" What is its recorded pIC50? > 6.30

Consider the compound shown here: "CCS(=O)(=O)Nc1cccc(-c2cn(C)c(=O)c3ccc(-c4ccc(C)nc4)cc23)c1" What is its recorded pIC50? > 6.30

Consider the compound shown here: Cn1cc(-c2cc(N)cc(F)c2)c2ccccc2c1=O [Example 25, hydrochloride] What is its recorded pIC50? 5.30 to 6.30

Consider the compound shown here: "Cn1cc(-c2cc(NS(C)(=O)=O)ccc2Cl)c2ccccc2c1=O" What is its recorded pIC50? > 6.30

Consider the compound shown here: "COc1ccc(-c2cn(C)c(=O)c3cc(F)ccc23)cc1S(=O)(=O)NCc1ccccc1" What is its recorded pIC50? 5.30 to 6.30

Consider the compound shown here: "Cn1cc(-c2cccc(S(=O)(=O)N3CCOCC3)c2)c2ccccc2c1=O" What is its recorded pIC50? 5.30 to 6.30
